# ASSAY_EXPLANATION: Pharmacokinetic pilot study, YM155 in blood/plasma after single i.v. administration
# Format: in vivo, mice
# SETTINGS: female, NMRI nu/nu, mouse, plasma, iv, 1 mg/kg, single i.v. 1 mg/kg YM155, female mice with KCNR xenografts, non-compartmental analysis; read-out: t1/2 (NCA) (converted)

[
  {
    "MOLECULE": "COCCn1c2c([n+](Cc3cnccn3)c1C)C(=O)c1ccccc1C2=O [YM155, Sepantronium bromide]",
    "MEASUREMENT_UNIT": "min",
    "half-life": 24
  }
]
